# Tested on: SNB-19 CNS
# assay.comment: NCI-60 one-dose screen, 48 h (100 = growth as untreated, 0 = no growth, -100 = all killed)
# condition.details: 10 µM
Compounds without any hit were thinned out: in the full panel of roughly 83,000, 20% have a hit.
With a cut-off of 70%, any growth strictly below it is called true (1); any growth meeting it or above is called false (0).

>>> label("O=C1c2ccccc2C(=O)c2c1ccc1c(=O)n(-c3ccccc3C(F)(F)F)nnc21")
"true (1)"
>>> label("CCN1CC(CCN2CCOCC2)C(C(c2ccccc2)c2ccccc2)C1=O (stereo not given)")
"false (0)"
>>> label("CC1CCCC(C(=O)O)C1C(=O)O (stereo not given)")
"false (0)"
>>> label("COc1cc(/C=C2\\CCCC3C2=Nc2ccccc2NC3c2cc(OC)c(OC)c(OC)c2)cc(OC)c1OC (stereo not given)")
"true (1)"
>>> label("COc1cc(C2C(C#N)=C(N)Oc3cc(O)ccc32)cc(OC)c1OC (stereo not given)")
"true (1)"
>>> label("O=C(O)COc1c(Cl)cc([N+](=O)[O-])cc1Cl")
"false (0)"
>>> label("O=C(N/N=C/c1ccc(Cl)cc1)c1ccccc1Nc1cccc(C(F)(F)F)c1")
"false (0)"
>>> label("CC(=O)N[C@H](C(=O)N[C@@H](CCCNC(=N)N)C(=O)N[C@@H](CCCCN)C(=O)N[C@@H](CCCNC(=N)N)C(=O)N[C@]1(C)CCCCCC/C=C\\CCC[C@@](C)(C(=O)N[C@@H](CCCNC(=N)N)C(=O)N[C@@H](CCC(=O)O)C(=O)N[C@@H](CC(C)C)C(=O)N[C@H](C(=O)N[C@@H](CCC(=O)O)C(N)=O)C(C)C)NC(=O)[C@H](CCC(N)=O)NC(=O)[C@H](CC(C)C)NC(=O)[C@H](CC(C)C)NC(=O)[C@H](CCCNC(=N)N)NC(=O)[C@H](CCCNC(=N)N)NC(=O)[C@H](CC(C)C)NC1=O)C(C)C")
"true (1)"
>>> label("CCCCN(CCCC)C(=O)[C@H](CC)[C@@H]1CC[C@@H](C)[C@@H]([C@H](C)[C@@H](O)[C@@H](C)C(=O)[C@H](CC)C2O[C@]3(C=C[C@@H](O)[C@]4(CC[C@@](C)([C@H]5CC[C@](O)(CC)[C@H](C)O5)O4)O3)[C@H](C)C[C@@H]2C)O1 (stereo not given in full)")
"true (1)"
>>> label("COc1ccccc1N1CCCSC1=Nc1ccccc1")
"false (0)"
>>> label("COc1cc(C2CC(c3cc(Cl)c(C)cc3O)=NN2c2ccc(S(N)(=O)=O)cc2)cc(OC)c1OC (stereo not given)")
"true (1)"
>>> label("COc1cc(/C=C/c2cc(/C=C/c3ccc(O)c(OC)c3)[nH]c(=O)n2)ccc1O")
"false (0)"
>>> label("CCCCc1oc2ccccc2c1C(=O)c1cc(I)c(OCCN(CC)CC)c(I)c1")
"true (1)"
>>> label("CCOC(=O)c1cc(C(=O)c2ccc(Cl)cc2)n2ccc(-c3cc[n+](CC(=O)c4ccc(OC)cc4)cc3)cc12")
"false (0)"
>>> label("CC(C)N(CCOc1ccc(-c2nc3sccn3c2-c2ccnc(S(C)(=O)=O)n2)cc1)C(C)C")
"false (0)"
>>> label("COc1cc(-c2nn(-c3cccc(NC(=O)NCCNC(=O)c4cccc(C(F)(F)F)c4)c3)cc2-c2ccncc2)ccc1Cl")
"true (1)"
>>> label("Cc1cc(Cl)ccc1Nc1nc(C(F)(F)F)ccc1C(=O)N/N=C/c1c(Cl)cccc1Cl")
"true (1)"
>>> label("C[C@]12CC[C@@H]3c4ccc(O)cc4CC[C@H]3[C@@H]1CC[C@@H]2NS(=O)(=O)c1ccc(C(F)(F)F)cc1")
"false (0)"
>>> label("Oc1cccc(-c2nc3sccn3c2-c2ccncn2)c1")
"false (0)"
>>> label("CCOC(=O)CSc1nc(-c2cc(OC)ccc2OC)cc(-c2ccc(OC)cc2)c1C#N")
"false (0)"
>>> label("CCn1c(SCc2ccc(C)cc2)nnc1-c1nn(-c2ccc(Cl)cc2Cl)c(-c2ccc(Cl)cc2)c1C")
"true (1)"
>>> label("Cc1cc(O)ccc1C1=NN(c2ccc(S(C)(=O)=O)cc2)C(=O)CC1")
"false (0)"
>>> label("COc1cc(C2CC(c3ccccc3)=NN2C(C)=O)cc(OC)c1OC (stereo not given)")
"true (1)"
>>> label("COc1cc(-c2csc(NC(=O)Nc3cc(C(F)(F)F)cc(C(F)(F)F)c3)n2)cc(OC)c1OC")
"true (1)"
>>> label("CC(=O)Nc1ccc(S(=O)(=O)c2ccnc3cc(Cl)ccc23)cc1")
"false (0)"
>>> label("CN(C)CCOc1ccc(-c2nc3sccn3c2-c2ccnc(S(C)(=O)=O)n2)cc1")
"false (0)"
>>> label("CN(C)CCCSc1ccccc1NC1=C(Cl)C(=O)C(Nc2ccccc2SCCCN(C)C)=C(Cl)C1=O")
"false (0)"
>>> label("COc1ccc(Cc2cnc(N)nc2N)cc1OC")
"false (0)"
>>> label("OCC1OC(n2ccc3c(NO)ncnc32)C(O)C1O (stereo not given)")
"true (1)"
>>> label("Clc1nc2ccc(Br)cc2cc1-c1nc2ccccc2[nH]1")
"false (0)"
>>> label("CN(C)CCC1(c2ccccc2)CCN(C)C1=O (stereo not given)")
"false (0)"
>>> label("NS(=O)(=O)Oc1ccc2c(ccn2C(=O)C23CC4CC(CC(C4)C2)C3)c1")
"false (0)"
>>> label("Cc1c2cnccc2c(C)c2c1c1cc(O)ccc1n2C(C)C")
"true (1)"
>>> label("COc1cc2cc(Oc3ccc(NC(=O)c4ccccc4)cc3)c(C)nc2cc1OC")
"false (0)"

* * *

# Test system: 786-0 renal
# assay.comment: NCI-60 one-dose screen, 48 h (100 = growth as untreated, 0 = no growth, -100 = all killed)
# condition.details: 10 µM
The panel holds about 83,000 compounds, 20% with a hit somewhere; the sample as a whole holds those more often.
growth values by entry
quantity.name: growth (%)

>>> observed_value("COc1cc(C(=O)/C(C)=C/c2c[nH]c3ccccc23)cc(OC)c1OC")
11
>>> observed_value("CCN(CC)CCNc1ccc(C)c2sc3cc(Cl)ccc3c(=O)c12")
43.3
>>> observed_value("CNC(=O)c1cc(Oc2ccc3c(c2)sc2nc(-c4ccc(N)cc4)cn23)ccn1")
19.4
>>> observed_value("CC(C)(C)OC(=O)N1CCc2c(sc3ncnc(N/N=C/c4cccc(Br)c4)c23)C1")
50.7
>>> observed_value("COc1cc(-c2nn(-c3cccc(NC(=O)NCCNS(=O)(=O)c4ccc(Cl)cc4)c3)cc2-c2ccncc2)ccc1Cl")
6.74
>>> observed_value("CC(CN(C)C)Oc1ccccc1NC1=C(Cl)C(=O)C(Nc2ccccc2OC(C)CN(C)C)=C(Cl)C1=O (centres undefined)")
-71.5
>>> observed_value("COc1ccccc1/C=N\\N/C(N)=N\\N=C\\c1ccccc1OC")
7.99
>>> observed_value("Fc1ccc2[nH]cc(-c3nc(-c4ccsc4)cs3)c2c1")
109
>>> observed_value("COc1cc(/C=C/c2cc(/C=C/c3ccc(O)c(OC)c3)n(C(=O)Nc3ccc(C)cc3)n2)ccc1O")
-1.18

* * *

# System: SW-620 colon
# assay.comment: NCI-60 one-dose screen, 48 h (100 = growth as untreated, 0 = no growth, -100 = all killed)
# condition.details: 10 µM
The panel holds about 83,000 compounds, 20% with a hit somewhere; the sample as a whole holds those more often.
Entries and their growth
quantity.name: growth (%)

>>> observed_value("CN1C(=O)C2(Nc3cc(Cl)ccc3S2)c2cc(Cl)ccc21 (stereo not drawn)")
94
>>> observed_value("COc1ccc(-c2nn(-c3cccc(Cl)c3)cc2C=C(C#N)C#N)cc1")
-2.25
>>> observed_value("COc1cc(/C=C/c2cc(/C=C/c3ccc(O)c(OC)c3)[nH]c(=O)n2)ccc1O")
43.6
>>> observed_value("c1ccc(/C(=N\\Nc2ccc3ccccc3n2)c2ccccn2)cc1")
22.6
>>> observed_value("CCN(CC)CCNc1ccc(C)c2sc3cc(Cl)ccc3c(=O)c12")
2.58
>>> observed_value("CC1CCCC(C(=O)O)C1C(=O)O (stereo not drawn)")
98.9
>>> observed_value("Nc1ccc(-c2cccs2)cc1NC(=O)c1ccc(CCCC(=O)Nc2ccc(C3CC3N)cc2)cc1 (stereo not drawn)")
23.7
>>> observed_value("CCc1c2c(nc3ccc(OC(=O)N4CCC(N5CCCCC5)CC4)cc13)-c1cc3c(c(=O)n1C2)COC(=O)[C@]3(O)CC")
41.4
>>> observed_value("C/C(=C/CCC(C)[C@@H]1CC[C@]2(C)C3=C(CC[C@@]12C)[C@@]1(C)CCC(=O)C(C)(C)[C@@H]1CC3)C(=O)O (stereo partly drawn)")
-85.2
>>> observed_value("c1cncc(-c2csc(-c3c[nH]c4ccccc34)n2)c1")
102
>>> observed_value("CCOC(=O)C1C(C(=O)OCC)C2C(=O)C3C(C(=O)OCC)C(C(=O)OCC)C3C(=O)C12 (stereo not drawn)")
111
>>> observed_value("COc1ccc(-c2nn(-c3cccc(Cl)c3)cc2-c2c(C#N)c(=O)n3[nH]c(-c4ccccc4)nc3c2C#N)cc1")
108
>>> observed_value("CCCCN(CCCC)C(=O)[C@H](CC)[C@@H]1CC[C@@H](C)[C@@H]([C@H](C)[C@@H](O)[C@@H](C)C(=O)[C@H](CC)C2O[C@]3(C=CC(=O)[C@]4(CC[C@@](C)([C@H]5CC[C@](O)(CC)[C@H](C)O5)O4)O3)[C@H](C)C[C@@H]2C)O1 (stereo partly drawn)")
25.7
>>> observed_value("COc1cc2cc(Oc3ccc(NC(=O)Nc4ccc(Cl)c(Cl)c4)cc3)c(C)nc2cc1OC")
23.4
>>> observed_value("COc1cccc(CNc2cccc3cn[nH]c23)c1O")
99.1
>>> observed_value("C=CCSC(CC)(CC)C(=O)NC")
103
>>> observed_value("CS(=O)(=O)c1nccc(-c2c(-c3cccc(OCCN4CCOCC4)c3)nc3sccn23)n1")
97.7
>>> observed_value("COc1ccc(Cl)cc1Nc1nc(C(F)(F)F)ccc1C(=O)N/N=C/c1cc(OC)c(OC)c(OC)c1")
16.7
